- assayProtocol: protein stability index of a GFP-peptide fusion (yeast GPS) (PSI 1-4); higher = more stable; sorted into four equal gates, so the index is relative within each strain
- conditionContext: san1∆
property: protein stability index
Hey, just send me the number, nothing else.

Would you please look over these solved cases?
Given the entry GLIVNPVKVSGTIKKIE [POP5] , report its measured protein stability index.
2.95

Given the entry QQQQQQQQPQPQYNMNM [PGD1] , report its measured protein stability index.
2.67

Given the entry EKGSWEQLSPQDVLQML [BRR2] , report its measured protein stability index.
3.42

Given the entry QTARKSTGGKAPRKQLA [HHT1] , report its measured protein stability index.
3.05

Given the entry VEYLDVNEENDSYIALY [RET1] , report its measured protein stability index.
3.2

Given the entry VIELPLKNPEIFQRVGI [RPT4] , report its measured protein stability index.
2.46

Continuing:
Given the entry LLCALDRKDQDDRDHFG [RPB2] , report its measured protein stability index.
2.71

Given the entry NVYRVTVHKTFEGNVAT [PRP8] , report its measured protein stability index.
3.23

====

- assayProtocol: protein stability index of a GFP-peptide fusion (yeast GPS) (PSI 1-4); higher = more stable; sorted into four equal gates, so the index is relative within each strain
- conditionContext: san1∆
The following sequences are listed with their measured protein stability index values.
Hey, just send me the number, nothing else.

Would you please look over these solved cases?
Given the entry SKVIIKFLQVMQKHGYI [RPS22A] , report its measured protein stability index.
1.76

Given the entry QNVISLGSLTVEDYLSS [RPC82] , report its measured protein stability index.
2.06

Continuing:
Given the entry VPQTEEARAEAINLMGV [RPO31] , report its measured protein stability index.
3

Given the entry DGKLEPSTRSNFILEVF [YJL039C/NUP192] , report its measured protein stability index.
1.92

Given the entry AVYGPRSIRGSFTSQGT [MTR3] , report its measured protein stability index.
3.08

Given the entry VYDIMALEDEERDEILT [BRR2] , report its measured protein stability index.
3.08

Given the entry AMLINLILRDFLNNGEV [RPN3] , report its measured protein stability index.
2.59

Given the entry PQKSSSKGFVFNSVQKK [YAR002W/NUP60] , report its measured protein stability index.
1.83

Given the entry QVGDGLEILIVTKDGVR [PRE7] , report its measured protein stability index.
2.92

Given the entry KVDINADSAVNRQTLMF [PRP28] , report its measured protein stability index.
3.08

Given the entry KLKQGQKLFVQVSNFAP [GAL11] , report its measured protein stability index.
3.01

Given the entry PSKLVITKLHLDKDRKA [RPL26A] , report its measured protein stability index.
1.75

Given the entry PNRITLTDHRKETWLHE [SRB8] , report its measured protein stability index.
3.17

Given the entry TKRSIAIVFEEIKNWIS [YMR129W/POM152] , report its measured protein stability index.
1.44

====

- assayProtocol: protein stability index of a GFP-peptide fusion (yeast GPS) (PSI 1-4); higher = more stable; sorted into four equal gates, so the index is relative within each strain
- conditionContext: pdr5∆
Threshold check on protein stability index: at or above 2 gives YES, strictly below gives NO.

Does NSSTSSTSNTPSPPNVI [YDL088C/ASM4] have a reported protein stability index of at least 2?
YES
